Provenance of the data: PubChem BioAssay AID1159580

experiment: chemical genetic growth profiling, strain panel (AID 1159580);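 also: tested at 20 µM; growth read once vehicle control cultures reached saturation at 30 °C; 1 = growth at the plate median or of vehicle wells; lower values mean less growth of the strain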; conditions: S. cerevisiae deletion strains, growth OD, locus YJL187C, strain SWE1, stronger effect = lower value
In all, about 5,500 compounds went through this assay and about 2,000 (36%) were called active. About 18% were inconclusive and are not listed. The list shows a part of the results.
measured quantity: normalized growth
Simply state the number, no unit and no words.

Here's what some known entries look like.
O=C(CC(Nc1ccccc1)c1ccccc1)C1CC1 (stereo unspecified); 1
O=C1N=C(O)CN1/N=C\c1ccc(-c2ccc([N+](=O)[O-])cc2)o1; 0.986
O=C(CCCCCCCCC(=O)c1ccccc1)c1ccccc1; 1.02
O=C1OCCN1/N=C\c1ccc([N+](=O)[O-])o1; 1
CCn1cc(C(=O)O)c(=O)c2cc3c(cc21)OCO3; 0.975

# normalized growth (molecule: NC(=O)N/N=C\c1ccc([N+](=O)[O-])o1 ) is 0.996
